assaySystem: human 11β-HSD1 enzyme (Homo sapiens, UniProt P28845)
Construct: stably transfected with a construct containing the full-length gene coding for the human 11β-HSD1 enzyme; expressed in transfected cells; HEK293/11β-HSD1 cells)
Sequence (P28845 whole entry): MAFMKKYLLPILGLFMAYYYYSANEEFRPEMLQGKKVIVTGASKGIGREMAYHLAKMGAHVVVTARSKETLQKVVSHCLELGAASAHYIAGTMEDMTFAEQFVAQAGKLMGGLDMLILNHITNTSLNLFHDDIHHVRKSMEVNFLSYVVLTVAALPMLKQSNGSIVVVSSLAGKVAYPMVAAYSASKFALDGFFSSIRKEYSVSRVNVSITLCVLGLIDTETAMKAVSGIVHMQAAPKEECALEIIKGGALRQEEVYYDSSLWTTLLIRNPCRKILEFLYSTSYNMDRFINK
methodNotes: Cellular in vitro 11β-HSD1 enzyme inhibition assay (SPA, HEK293/11β-HSD1 cells)
Format: cell-based
testConditions: HEK293 cells stably transfected with human 11β-HSD1; Table 1; read-out: IC50 for 11β-HSD1 (HEK293)
pIC50: −log10 of the molar value.

{"molecule": "O=C(c1csc(-c2cn[nH]c2)c1)N1CCC(O)(c2ccccc2Cl)CC1", "pIC50": 8.00}
{"molecule": "O=C(c1csc(-c2cn[nH]c2)c1)N1C2CCC1CC(c1ccccc1)C2 (stereo not drawn)", "pIC50": 6.94}
{"molecule": "O=C(c1csc(-c2cn[nH]c2)c1)N1CCC(F)(c2ccccc2F)CC1", "pIC50": 6.98}
{"molecule": "O=C(c1csc(-c2cn[nH]c2)c1)N1CCC(O)(c2ccc(F)cc2Cl)CC1", "pIC50": 7.00}
{"molecule": "O=C(c1csc(-c2cn[nH]c2)c1)N1CCC(O)(c2ccccc2)CC1", "pIC50": 6.68}
{"molecule": "O=C(c1csc(-c2cn[nH]c2)c1)N1CCC(F)(c2cc(F)ccc2Cl)CC1", "pIC50": 7.46}
